meta.source: patent US20160120863A1

Target Of Assay: human GLUT1 (Homo sapiens, UniProt P11166)
Construct: expressed in transfected cells
Sequence (P11166 whole entry): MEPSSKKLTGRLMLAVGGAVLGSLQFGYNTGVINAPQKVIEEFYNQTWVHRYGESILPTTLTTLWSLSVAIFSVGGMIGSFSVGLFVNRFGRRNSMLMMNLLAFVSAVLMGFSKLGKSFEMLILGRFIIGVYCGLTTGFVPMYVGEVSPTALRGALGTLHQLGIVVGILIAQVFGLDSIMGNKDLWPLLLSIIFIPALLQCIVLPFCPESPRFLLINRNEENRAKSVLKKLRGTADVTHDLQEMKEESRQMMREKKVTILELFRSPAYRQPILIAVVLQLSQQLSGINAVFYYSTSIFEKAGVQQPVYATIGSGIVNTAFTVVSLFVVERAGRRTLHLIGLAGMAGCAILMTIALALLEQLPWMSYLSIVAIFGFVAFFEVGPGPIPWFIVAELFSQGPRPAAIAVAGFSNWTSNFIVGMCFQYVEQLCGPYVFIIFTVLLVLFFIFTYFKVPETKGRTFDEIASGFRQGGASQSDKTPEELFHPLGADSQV
Protocol: [3H]-deoxy-D-glucose uptake assay, GLUT1
Format: cell-based
Test Settings: [3H]-deoxy-D-glucose uptake in HEK293 cells stably expressing human GLUT1

- Compound: "CC(=O)N1CCN(Cc2c(-c3ccc(Cl)cc3Cl)nc3cnccn23)CC1 [Compound 349]"
  GLUT1 pIC50: "++ (pIC50 5.00-5.99)"
- Compound: "CN1CCN(Cc2c(-c3ccc(Cl)cc3)nc3ccc(-c4ccccc4C#N)cn23)CC1=O [Compound 247]"
  GLUT1 pIC50: "+++ (pIC50 ≧ 6.00)"
- Compound: "N#Cc1ccccc1-c1ccc2nc(-c3ccc(Cl)cc3)c(CN3CCOCC3)n2c1 [Compound 91]"
  GLUT1 pIC50: "+++ (pIC50 ≧ 6.00)"
- Compound: "CC(C)(C)CC(=O)N1CCN(Cc2c(-c3ccc([N+](=O)[O-])cc3)nc3ccc(-c4ccccc4)cn23)CC1 [Compound 38]"
  GLUT1 pIC50: "++ (pIC50 5.00-5.99)"
- Compound: "O=C(C1CCC1)N1CCN(Cc2c(-c3ccc(Cl)cc3)nc3ccc(-c4ccccc4F)cn23)CC1 [Compound 202]"
  GLUT1 pIC50: "+++ (pIC50 ≧ 6.00)"
- Compound: "CS(=O)(=O)Nc1ccc2nc(-c3ccc(Cl)cc3Cl)c(CN3CCN(C(=O)c4ccnnc4)CC3)n2c1 [Compound 356]"
  GLUT1 pIC50: "+++ (pIC50 ≧ 6.00)"
- Compound: "CC(=O)NC1CCN(Cc2c(-c3ccc(Cl)cc3)nc3ccc(-c4ccccc4)cn23)CC1 [Compound 210]"
  GLUT1 pIC50: "++ (pIC50 5.00-5.99)"
- Compound: "COCC(=O)N1CCN(Cc2c(-c3ccc(Cl)cc3)nc3ccc(N)cn23)CC1 [Compound 280]"
  GLUT1 pIC50: "+− (pIC50 < 4.00)"
- Compound: "CS(=O)(=O)N1CCN(Cc2c(-c3ccc(Cl)cc3Cl)nc3cnc(C4CC4)cn23)CC1 [Compound 330]"
  GLUT1 pIC50: "+++ (pIC50 ≧ 6.00)"
- Compound: "O=C(c1cscn1)N1CCN(Cc2c(-c3ccc(Cl)cc3)nc3cnc(C4CC4)cn23)CC1 [Compound 267]"
  GLUT1 pIC50: "+++ (pIC50 ≧ 6.00)"
- Compound: "Clc1ccc(-c2nc3ccccn3c2CN2CCOCC2)cc1 [Compound 3]"
  GLUT1 pIC50: "++ (pIC50 5.00-5.99)"
- Compound: "COc1cccc(-c2nc3ccccn3c2CN2CCN(C(=O)C3CCC3)CC2)c1 [Compound 208]"
  GLUT1 pIC50: "+− (pIC50 < 4.00)"
- Compound: "Clc1ccc(-c2nc3cnc(-c4ccccc4)cn3c2CN2CCOCC2)cc1 [Compound 75]"
  GLUT1 pIC50: "+++ (pIC50 ≧ 6.00)"
- Compound: "CCC(=O)N1CCN(Cc2c(-c3ccc(Cl)cc3)nc3ccc(-c4ccccc4)cn23)CC1 [Compound 62]"
  GLUT1 pIC50: "+++ (pIC50 ≧ 6.00)"
- Compound: "O=C1CN(Cc2c(-c3ccc(Cl)cc3)nc3cnc(C4CC4)cn23)CCN1 [Compound 288]"
  GLUT1 pIC50: "+++ (pIC50 ≧ 6.00)"
